Tested on: Neuronal acetylcholine receptor; alpha3/beta4 (Homo sapiens, UniProt P30926+P32297)
Sequence (P30926 whole entry): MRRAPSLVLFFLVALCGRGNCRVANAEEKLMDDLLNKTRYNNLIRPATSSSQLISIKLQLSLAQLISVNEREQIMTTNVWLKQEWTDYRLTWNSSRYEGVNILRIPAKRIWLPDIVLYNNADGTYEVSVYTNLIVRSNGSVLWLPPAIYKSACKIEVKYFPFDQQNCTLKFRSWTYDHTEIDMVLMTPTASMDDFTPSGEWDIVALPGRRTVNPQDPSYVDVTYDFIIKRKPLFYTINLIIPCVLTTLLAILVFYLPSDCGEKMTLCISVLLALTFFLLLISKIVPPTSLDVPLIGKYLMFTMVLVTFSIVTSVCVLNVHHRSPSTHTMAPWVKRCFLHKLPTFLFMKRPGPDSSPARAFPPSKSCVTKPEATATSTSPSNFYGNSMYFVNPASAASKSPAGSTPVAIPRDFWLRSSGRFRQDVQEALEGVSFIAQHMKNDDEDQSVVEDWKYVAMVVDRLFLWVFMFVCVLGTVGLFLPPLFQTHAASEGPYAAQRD
Sequence (P32297 whole entry): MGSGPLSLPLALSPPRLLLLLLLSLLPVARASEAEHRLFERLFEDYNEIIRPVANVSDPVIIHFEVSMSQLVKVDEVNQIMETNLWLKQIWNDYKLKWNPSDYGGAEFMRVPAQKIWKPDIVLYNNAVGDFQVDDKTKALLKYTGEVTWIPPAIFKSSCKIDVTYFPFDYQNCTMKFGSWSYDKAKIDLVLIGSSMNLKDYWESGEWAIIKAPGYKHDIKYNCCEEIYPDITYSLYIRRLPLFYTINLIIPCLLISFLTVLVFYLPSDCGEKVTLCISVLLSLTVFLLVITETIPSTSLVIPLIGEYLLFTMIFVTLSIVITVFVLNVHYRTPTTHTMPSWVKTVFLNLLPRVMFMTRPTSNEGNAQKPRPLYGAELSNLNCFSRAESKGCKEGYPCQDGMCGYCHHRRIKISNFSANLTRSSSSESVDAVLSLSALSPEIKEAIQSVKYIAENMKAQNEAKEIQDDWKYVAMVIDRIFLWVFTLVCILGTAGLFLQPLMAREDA
Assay remarks: Agonist activity at human alpha3beta4 nACHR expressed in CHO cell membranes assessed as stimulation of calcium flux by FLIPR assay
Endpoint: pEC50
Give bare numbers, as −log10 of the molar value.

# Compound, Measured
rows = [
    ("COC(=O)N1CC2CNCC2C1 (mixture of isomers)", 4.80),
    ("COC(=O)[C@H]1C[C@H]2CNC[C@H]2C1 (mixture of isomers)", 4.85),
    ("CNC(=O)[C@H]1C[C@@H]2CNC[C@@H](C2)C1", 4.00),
    ("O=C([C@@H]1C[C@H]1F)N1CC2CNCC(C2)C1 (mixture of isomers)", 6.41),
    ("O=C([C@@H]1C[C@@H]1F)N1CC2CNCC2C1 (mixture of isomers)", 4.89),
    ("O=C([C@H]1C[C@@H]1F)N1CC2CNCC2C1 (mixture of isomers)", 4.85),
    ("CC(=O)N1CC2CNCC(C2)C1 (mixture of isomers)", 4.89),
]

-- ask Which value of pEC50 has been reported for C[C@@H]1C[C@@H]1C(=O)N1CC2CNCC2C1 (mixture of isomers) in the records?
-- reply 5.85
